Test system: P. falciparum 3D7 or K1 strains
Test: P. falciparum growth inhibition assays of VS hits
Format: cell-based, Plasmodium falciparum
Conditions: against either 3D7 or K1 strains, most potent VS hit
Property Name: EC50 (nM)
Respond numerically; units are nM and should not be typed.

Query: Test system P. falciparum 3D7 or K1 strains; read-out EC50; what value for C=CC1CN2CCC1CC2C(OC(=O)C1CC1)c1ccnc2ccccc12 (stereo not shown) [SJ000565000] ?
Reply: 95.6

====

Test system: P. falciparum 3D7 strain
Experiment: P. falciparum growth inhibition assay
Format: cell-based
Details: Plasmodium falciparum, 3D7, 72 h, read-out: consensus EC50
Quick reference for pEC50 among some compounds
Scale for pEC50: -log10 of concentration given in mol/L; no unit attached.

[[record]]
compound = "OC(c1cc(C(F)(F)F)nc2c(C(F)(F)F)cccc12)C1CCCCN1 (centres unmarked)"
property_name = "pEC50"
recorded_value = 7.40


# evaluate next
Query: Find the recorded pEC50 belonging to CCN(CC)CCCC(C)Nc1ccnc2cc(Cl)ccc12 (centres unmarked) and report it.
Reply: 7.57

Source: paper PMC3644566
